Tested System: UniProt P54760
Setup Conditions: read-out: Cell-Based Target Inhibition Assays IC50, pEphB4 Y590/Y596; HEK293-Clone 25; stable over-expression of EphB4
Measurement Kind: pIC50
Give bare numbers, as −log10 of the molar value.

Asked: Bench note: what pIC50 did `Cc1cc(-c2ccn3c(-c4ccc(CC(=O)Nc5cccc(C(F)(F)F)c5)c(F)c4)cnc3c2)ccn1` show?
Given back: 8.04

---

Tested System: EPHB1 (Homo sapiens, UniProt P54762)
Sequence (P54762 18-984): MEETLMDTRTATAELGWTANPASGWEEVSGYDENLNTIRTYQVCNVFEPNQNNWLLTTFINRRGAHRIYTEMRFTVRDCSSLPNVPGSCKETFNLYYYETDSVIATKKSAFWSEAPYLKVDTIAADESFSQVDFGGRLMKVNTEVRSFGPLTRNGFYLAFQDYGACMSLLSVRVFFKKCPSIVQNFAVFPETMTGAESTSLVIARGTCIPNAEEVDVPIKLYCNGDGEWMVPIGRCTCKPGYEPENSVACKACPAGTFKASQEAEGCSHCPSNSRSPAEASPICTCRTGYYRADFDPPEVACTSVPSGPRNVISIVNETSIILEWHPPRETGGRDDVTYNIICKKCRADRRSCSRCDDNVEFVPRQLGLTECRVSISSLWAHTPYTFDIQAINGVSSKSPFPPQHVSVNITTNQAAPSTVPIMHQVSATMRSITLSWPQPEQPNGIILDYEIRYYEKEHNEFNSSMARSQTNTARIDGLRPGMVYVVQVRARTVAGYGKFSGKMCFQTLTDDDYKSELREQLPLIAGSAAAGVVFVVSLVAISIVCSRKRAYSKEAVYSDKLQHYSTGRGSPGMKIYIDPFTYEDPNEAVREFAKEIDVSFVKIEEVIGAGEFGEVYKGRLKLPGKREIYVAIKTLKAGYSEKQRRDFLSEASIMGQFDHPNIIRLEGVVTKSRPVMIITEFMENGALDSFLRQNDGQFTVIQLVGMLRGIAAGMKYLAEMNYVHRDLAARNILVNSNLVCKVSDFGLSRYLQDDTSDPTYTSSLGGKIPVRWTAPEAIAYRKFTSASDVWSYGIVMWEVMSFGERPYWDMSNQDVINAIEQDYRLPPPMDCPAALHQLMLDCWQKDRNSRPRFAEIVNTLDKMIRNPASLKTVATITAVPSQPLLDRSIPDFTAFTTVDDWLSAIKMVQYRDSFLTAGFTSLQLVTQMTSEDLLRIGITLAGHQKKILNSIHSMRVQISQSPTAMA
Measurement Kind: IC50 (nM)
Give bare numbers, in nM.

Asked: Bench note: what IC50 did `Cc1cc(-c2ccn3c(-c4ccc(CC(=O)Nc5cccc(C(F)(F)F)c5)c(F)c4)cnc3c2)ccn1` show?
Given back: 21.4

---

Tested System: EPHA5 (Homo sapiens, UniProt P54756)
Measurement Kind: IC50
Lab note: write values as number then unit, every time.

Asked: Bench note: what IC50 did `Cc1cc(-c2ccn3c(-c4ccc(CC(=O)Nc5cccc(C(F)(F)F)c5)c(F)c4)cnc3c2)ccn1` show?
Given back: 10.7 nM

---

Tested System: UniProt:P09619
Protocol: Biochemical inhibition profile, PDGF-Rb
Setup Conditions: read-out: Biochemical Inhibition Profile IC50, PDGF-Rb
Measurement Kind: IC50 (nM)
Give bare numbers, in nM.

Asked: Bench note: what IC50 did `Cc1cc(-c2ccn3c(-c4ccc(CC(=O)Nc5cccc(C(F)(F)F)c5)c(F)c4)cnc3c2)ccn1` show?
Given back: 25.7

---

Tested System: KDR (Homo sapiens, UniProt P35968)
Sequence (P35968 20-1356): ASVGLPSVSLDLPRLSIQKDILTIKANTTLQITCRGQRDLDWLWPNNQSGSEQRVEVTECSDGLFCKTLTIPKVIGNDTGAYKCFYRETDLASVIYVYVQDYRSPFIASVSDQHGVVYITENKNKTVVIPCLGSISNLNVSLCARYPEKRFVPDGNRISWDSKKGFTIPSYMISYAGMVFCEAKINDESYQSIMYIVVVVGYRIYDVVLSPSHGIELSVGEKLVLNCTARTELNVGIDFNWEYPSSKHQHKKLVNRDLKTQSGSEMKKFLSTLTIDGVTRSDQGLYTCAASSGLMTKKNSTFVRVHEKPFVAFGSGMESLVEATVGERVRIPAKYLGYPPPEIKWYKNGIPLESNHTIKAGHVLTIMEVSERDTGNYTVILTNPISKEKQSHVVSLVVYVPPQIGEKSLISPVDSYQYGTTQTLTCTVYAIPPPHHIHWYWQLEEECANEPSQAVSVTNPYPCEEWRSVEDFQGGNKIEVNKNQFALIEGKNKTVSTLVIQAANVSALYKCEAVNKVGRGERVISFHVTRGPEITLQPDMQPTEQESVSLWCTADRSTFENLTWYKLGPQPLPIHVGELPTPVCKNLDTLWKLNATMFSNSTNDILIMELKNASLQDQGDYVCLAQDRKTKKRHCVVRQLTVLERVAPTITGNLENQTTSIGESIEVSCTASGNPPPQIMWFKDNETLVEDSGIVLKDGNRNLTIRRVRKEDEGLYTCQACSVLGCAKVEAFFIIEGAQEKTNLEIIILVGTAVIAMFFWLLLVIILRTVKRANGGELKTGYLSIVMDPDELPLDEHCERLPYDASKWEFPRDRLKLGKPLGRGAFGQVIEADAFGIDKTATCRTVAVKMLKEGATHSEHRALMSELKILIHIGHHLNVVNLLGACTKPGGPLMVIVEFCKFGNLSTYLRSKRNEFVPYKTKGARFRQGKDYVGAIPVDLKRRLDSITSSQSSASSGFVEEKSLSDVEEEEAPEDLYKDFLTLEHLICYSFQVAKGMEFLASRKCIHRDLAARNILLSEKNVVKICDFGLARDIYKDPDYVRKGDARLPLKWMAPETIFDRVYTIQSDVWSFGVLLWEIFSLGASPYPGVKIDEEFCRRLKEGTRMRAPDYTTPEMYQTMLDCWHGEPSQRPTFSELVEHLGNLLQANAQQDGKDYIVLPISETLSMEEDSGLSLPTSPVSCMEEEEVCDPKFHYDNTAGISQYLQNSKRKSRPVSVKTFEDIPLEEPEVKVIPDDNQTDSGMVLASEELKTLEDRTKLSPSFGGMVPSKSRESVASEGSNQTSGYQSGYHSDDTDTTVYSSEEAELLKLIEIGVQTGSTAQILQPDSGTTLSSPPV
Measurement Kind: pIC50
Answers are plain numbers, as −log10 of the molar value.

Asked: Bench note: what pIC50 did `Cc1cc(-c2ccn3c(-c4ccc(CC(=O)Nc5cccc(C(F)(F)F)c5)c(F)c4)cnc3c2)ccn1` show?
Given back: 7.55

---

Tested System: UniProt:P29322
Protocol: Biochemical inhibition profile, EPHA8
Setup Conditions: read-out: Biochemical Inhibition Profile IC50, EPHA8
Measurement Kind: IC50

Asked: Bench note: what IC50 did `Cc1cc(-c2ccn3c(-c4ccc(CC(=O)Nc5cccc(C(F)(F)F)c5)c(F)c4)cnc3c2)ccn1` show?
Given back: 33.5 nM

---

Tested System: EPHA1 (Homo sapiens, UniProt P21709)
Sequence (P21709 26-976): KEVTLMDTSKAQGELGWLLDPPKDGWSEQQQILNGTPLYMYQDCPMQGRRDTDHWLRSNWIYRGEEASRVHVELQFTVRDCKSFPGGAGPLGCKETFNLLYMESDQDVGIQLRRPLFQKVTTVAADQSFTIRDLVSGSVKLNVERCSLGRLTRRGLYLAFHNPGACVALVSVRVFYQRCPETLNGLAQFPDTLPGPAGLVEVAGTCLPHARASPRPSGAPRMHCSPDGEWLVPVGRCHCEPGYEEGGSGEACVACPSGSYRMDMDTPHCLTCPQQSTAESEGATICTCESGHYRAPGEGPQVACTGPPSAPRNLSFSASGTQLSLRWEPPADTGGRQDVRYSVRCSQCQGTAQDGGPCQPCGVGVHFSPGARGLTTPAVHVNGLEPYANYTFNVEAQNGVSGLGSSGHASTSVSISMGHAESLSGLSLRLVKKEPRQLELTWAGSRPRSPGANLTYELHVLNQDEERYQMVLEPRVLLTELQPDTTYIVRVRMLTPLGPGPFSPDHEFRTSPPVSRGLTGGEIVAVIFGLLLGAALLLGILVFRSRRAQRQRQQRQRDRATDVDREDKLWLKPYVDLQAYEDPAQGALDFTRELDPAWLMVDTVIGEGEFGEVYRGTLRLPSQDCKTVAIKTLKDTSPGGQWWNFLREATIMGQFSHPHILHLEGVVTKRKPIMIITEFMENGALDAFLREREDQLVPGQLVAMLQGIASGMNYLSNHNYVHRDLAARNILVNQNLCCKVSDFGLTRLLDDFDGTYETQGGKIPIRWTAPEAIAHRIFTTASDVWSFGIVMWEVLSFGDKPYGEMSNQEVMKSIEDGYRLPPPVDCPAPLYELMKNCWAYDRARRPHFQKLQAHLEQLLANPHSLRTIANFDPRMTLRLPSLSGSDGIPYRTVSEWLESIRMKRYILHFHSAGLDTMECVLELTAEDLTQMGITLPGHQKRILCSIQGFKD
Measurement Kind: pIC50
Answers are plain numbers, as −log10 of the molar value.

Asked: # returns recorded pIC50 (system: EPHA1 (Homo sapiens, UniProt P21709)) for `Cc1cc(-c2ccn3c(-c4ccc(CC(=O)Nc5cccc(C(F)(F)F)c5)c(F)c4)cnc3c2)ccn1`
Given back: 6.21

---

Tested System: RET (Homo sapiens)
Protocol: Biochemical inhibition profile, RET
Setup Conditions: read-out: Biochemical Inhibition Profile IC50, RET
Measurement Kind: IC50 (nM)
Give bare numbers, in nM.

Asked: Bench note: what IC50 did Cc1cc(-c2ccn3c(-c4ccc(CC(=O)Nc5cccc(C(F)(F)F)c5)c(F)c4)cnc3c2)ccn1 [LY2457546] show?
Given back: 4.19

---

Tested System: UniProt:P35916
Measurement Kind: pIC50
One number for each entry, as −log10 of the molar value.

Asked: Bench note: what pIC50 did `Cc1cc(-c2ccn3c(-c4ccc(CC(=O)Nc5cccc(C(F)(F)F)c5)c(F)c4)cnc3c2)ccn1` show?
Given back: 8.81

---

Tested System: EPHA2 (Homo sapiens, UniProt P29317)
Measurement Kind: pIC50
One number for each entry, as −log10 of the molar value.

Asked: Bench note: what pIC50 did Cc1cc(-c2ccn3c(-c4ccc(CC(=O)Nc5cccc(C(F)(F)F)c5)c(F)c4)cnc3c2)ccn1 [LY2457546] show?
Given back: 7.43

---

Tested System: UniProtKB P36888
Measurement Kind: pIC50
Numbers only, as −log10 of the molar value.

Asked: Bench note: what pIC50 did `Cc1cc(-c2ccn3c(-c4ccc(CC(=O)Nc5cccc(C(F)(F)F)c5)c(F)c4)cnc3c2)ccn1` show?
Given back: 8.29

---

Tested System: VEGF-R3 (Homo sapiens, UniProt P35916)
Sequence (P35916 25-1363): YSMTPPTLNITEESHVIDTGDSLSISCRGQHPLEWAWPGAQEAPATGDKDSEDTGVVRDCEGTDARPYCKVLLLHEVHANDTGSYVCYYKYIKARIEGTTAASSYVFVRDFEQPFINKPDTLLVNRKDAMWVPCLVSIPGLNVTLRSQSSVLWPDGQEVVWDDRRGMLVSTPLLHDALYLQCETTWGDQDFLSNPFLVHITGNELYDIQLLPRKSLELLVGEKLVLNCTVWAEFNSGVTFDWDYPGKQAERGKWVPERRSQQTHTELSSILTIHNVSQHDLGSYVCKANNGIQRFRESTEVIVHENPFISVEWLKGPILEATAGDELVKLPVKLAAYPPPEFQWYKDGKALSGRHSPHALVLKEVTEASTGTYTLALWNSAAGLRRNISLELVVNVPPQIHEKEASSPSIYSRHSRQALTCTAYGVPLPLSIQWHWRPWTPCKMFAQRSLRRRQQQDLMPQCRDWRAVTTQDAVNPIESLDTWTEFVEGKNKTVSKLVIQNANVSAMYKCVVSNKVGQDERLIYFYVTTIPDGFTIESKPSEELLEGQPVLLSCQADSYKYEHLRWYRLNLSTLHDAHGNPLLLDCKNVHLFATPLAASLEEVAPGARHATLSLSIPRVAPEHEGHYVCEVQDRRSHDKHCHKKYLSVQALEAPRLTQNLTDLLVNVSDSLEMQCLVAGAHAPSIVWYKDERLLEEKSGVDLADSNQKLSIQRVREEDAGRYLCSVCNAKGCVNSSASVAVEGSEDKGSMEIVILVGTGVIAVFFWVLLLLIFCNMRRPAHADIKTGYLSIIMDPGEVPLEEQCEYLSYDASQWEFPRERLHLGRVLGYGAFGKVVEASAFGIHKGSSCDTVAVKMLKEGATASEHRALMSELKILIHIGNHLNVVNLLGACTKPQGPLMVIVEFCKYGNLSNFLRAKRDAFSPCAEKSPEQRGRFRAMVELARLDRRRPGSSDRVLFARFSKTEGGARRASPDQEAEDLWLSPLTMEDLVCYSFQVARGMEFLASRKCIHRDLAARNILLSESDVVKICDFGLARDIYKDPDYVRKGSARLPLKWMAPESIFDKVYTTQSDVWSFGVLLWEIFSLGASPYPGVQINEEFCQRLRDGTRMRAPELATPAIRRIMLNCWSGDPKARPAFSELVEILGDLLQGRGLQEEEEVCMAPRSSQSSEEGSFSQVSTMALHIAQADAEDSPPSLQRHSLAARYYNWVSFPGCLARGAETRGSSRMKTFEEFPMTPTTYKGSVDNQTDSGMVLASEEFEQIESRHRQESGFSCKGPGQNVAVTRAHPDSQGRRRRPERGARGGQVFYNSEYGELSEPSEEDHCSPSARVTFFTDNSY
Measurement Kind: IC50 (nM)
Numbers only, in nM.

Asked: # returns recorded IC50 (system: VEGF-R3 (Homo sapiens, UniProt P35916)) for `Cc1cc(-c2ccn3c(-c4ccc(CC(=O)Nc5cccc(C(F)(F)F)c5)c(F)c4)cnc3c2)ccn1`
Given back: 34.1

---

Tested System: EPHB4 (Homo sapiens)
Sequence (P54760 16-987): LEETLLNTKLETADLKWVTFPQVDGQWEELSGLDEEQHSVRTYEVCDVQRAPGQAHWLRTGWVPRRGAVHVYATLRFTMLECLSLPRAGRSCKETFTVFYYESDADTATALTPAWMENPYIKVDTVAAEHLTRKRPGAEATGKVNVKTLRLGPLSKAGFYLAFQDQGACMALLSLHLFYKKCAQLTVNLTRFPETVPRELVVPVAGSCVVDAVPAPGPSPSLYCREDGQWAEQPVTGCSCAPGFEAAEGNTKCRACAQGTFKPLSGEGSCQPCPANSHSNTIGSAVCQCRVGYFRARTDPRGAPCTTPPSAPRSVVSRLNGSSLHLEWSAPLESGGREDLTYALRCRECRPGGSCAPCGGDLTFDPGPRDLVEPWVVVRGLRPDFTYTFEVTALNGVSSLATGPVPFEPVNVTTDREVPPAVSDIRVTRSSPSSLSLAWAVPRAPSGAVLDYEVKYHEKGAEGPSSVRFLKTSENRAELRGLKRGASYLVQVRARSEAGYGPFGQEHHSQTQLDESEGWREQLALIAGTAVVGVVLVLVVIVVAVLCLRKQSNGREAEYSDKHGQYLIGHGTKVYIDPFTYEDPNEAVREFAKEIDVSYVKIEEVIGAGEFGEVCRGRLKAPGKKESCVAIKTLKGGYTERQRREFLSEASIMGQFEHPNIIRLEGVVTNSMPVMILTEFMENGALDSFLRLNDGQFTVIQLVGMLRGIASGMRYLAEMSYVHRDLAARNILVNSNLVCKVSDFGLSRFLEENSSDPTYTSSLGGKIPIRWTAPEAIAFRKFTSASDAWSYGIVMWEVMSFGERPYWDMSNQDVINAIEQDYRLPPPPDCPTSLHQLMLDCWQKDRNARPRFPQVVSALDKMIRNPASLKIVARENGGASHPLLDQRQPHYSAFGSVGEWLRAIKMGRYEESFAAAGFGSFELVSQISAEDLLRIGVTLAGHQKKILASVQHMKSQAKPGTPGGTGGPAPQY
Setup Conditions: read-out: Biochemical Inhibition Profile IC50, EPHB4
Measurement Kind: IC50 (nM)
One number for each entry, in nM.

Asked: # returns recorded IC50 (system: EPHB4 (Homo sapiens)) for `Cc1cc(-c2ccn3c(-c4ccc(CC(=O)Nc5cccc(C(F)(F)F)c5)c(F)c4)cnc3c2)ccn1`
Given back: 39.8

---

Tested System: EPHA7 (Homo sapiens, UniProt Q15375)
Sequence (Q15375 28-998): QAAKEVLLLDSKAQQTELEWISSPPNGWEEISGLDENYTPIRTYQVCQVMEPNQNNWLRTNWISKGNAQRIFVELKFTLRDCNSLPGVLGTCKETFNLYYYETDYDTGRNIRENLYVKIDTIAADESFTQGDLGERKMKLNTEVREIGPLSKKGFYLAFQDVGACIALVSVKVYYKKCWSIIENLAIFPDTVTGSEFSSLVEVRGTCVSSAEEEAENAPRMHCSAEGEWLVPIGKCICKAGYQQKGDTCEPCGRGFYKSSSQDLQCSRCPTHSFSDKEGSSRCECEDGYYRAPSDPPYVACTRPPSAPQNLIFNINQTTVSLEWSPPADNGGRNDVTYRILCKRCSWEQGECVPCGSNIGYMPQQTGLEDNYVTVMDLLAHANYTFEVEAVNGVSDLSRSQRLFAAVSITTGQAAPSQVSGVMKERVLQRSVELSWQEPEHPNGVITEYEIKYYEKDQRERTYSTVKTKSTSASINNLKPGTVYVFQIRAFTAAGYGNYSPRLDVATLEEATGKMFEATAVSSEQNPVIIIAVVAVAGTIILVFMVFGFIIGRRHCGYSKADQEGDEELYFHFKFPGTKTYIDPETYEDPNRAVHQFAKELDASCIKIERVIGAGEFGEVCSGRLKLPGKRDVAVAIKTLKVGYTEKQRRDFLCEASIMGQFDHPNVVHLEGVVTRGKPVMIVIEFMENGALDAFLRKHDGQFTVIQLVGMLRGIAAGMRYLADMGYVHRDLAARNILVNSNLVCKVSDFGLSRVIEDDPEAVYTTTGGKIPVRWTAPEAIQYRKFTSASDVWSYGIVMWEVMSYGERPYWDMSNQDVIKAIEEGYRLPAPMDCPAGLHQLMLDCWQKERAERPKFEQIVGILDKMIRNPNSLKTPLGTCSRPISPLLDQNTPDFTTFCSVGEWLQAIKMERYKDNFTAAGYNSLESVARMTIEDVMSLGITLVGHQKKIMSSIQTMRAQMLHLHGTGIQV
Protocol: Biochemical inhibition profile, EPHA7
Setup Conditions: read-out: Biochemical Inhibition Profile IC50, EPHA7
Measurement Kind: IC50
Lab note: write values as number then unit, every time.

Asked: Bench note: what IC50 did `Cc1cc(-c2ccn3c(-c4ccc(CC(=O)Nc5cccc(C(F)(F)F)c5)c(F)c4)cnc3c2)ccn1` show?
Given back: 221 nM
